Test: drug combination growth inhibition, ovarian cancer – cell-based, oncology-focused library, rucaparib conditional, profiling panel (AID 1508598)
Conditions: patient-derived ovarian cancer cells, CellTiter-Glo viability, 144 h; at 0.00488 µM; OCI-P5x cells; with rucaparib 20 µM; stronger effect = lower value; 100% = cells with rucaparib alone
measurement_type: viability (%)

- molecule: "C[C@]12CC[C@H]3c4ccc(O)cc4CC[C@H]3[C@@H]1CC[C@H]2O"
  assay_value: 104
- molecule: "c1ccc(Cn2c(-c3ccc(OC[C@H](C4CCNCC4)n4c(-c5ccccc5)nc5ccccc54)cc3)nc3ccccc32)cc1"
  assay_value: 99.2
- molecule: "CO[C@H]1C[C@H]2CC[C@@H](C)[C@@](O)(O2)C(=O)C(=O)N2CCCC[C@H]2C(=O)O[C@H]([C@H](C)C[C@@H]2CC[C@H](OP(C)(C)=O)[C@H](OC)C2)CC(=O)[C@H](C)/C=C(\\C)[C@@H](O)[C@@H](OC)C(=O)[C@H](C)C[C@H](C)/C=C/C=C/C=C/1C"
  assay_value: 76.6
- molecule: "OCCn1cc(-c2ccc3c(c2)CCC3=NO)c(-c2ccncc2)n1"
  assay_value: 103

###

Assay: glutamate transport activators, MN-1 cells, MN-1 cell line (AID 1612);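 also: 0% = mean of DMSO vehicle wells on each plate; positive means more glutamate uptake than control and negative means less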
Settings: MN-1 motor neuron cells, stronger effect = higher value
Some compounds, each annotated with its measured glutamate uptake change.

- compound: "CCCCCCCCCCCCCCCCCC(=O)OC(CC(=O)O)C[N+](C)(C)C (centres undefined)"
  unit: "%"
  glutamate uptake change: -11.2
- compound: "COC1=C2C[C@@H](C)C[C@H](OC)[C@H](O)[C@@H](C)/C=C(\\C)[C@@H](OC(N)=O)[C@H](OC)/C=C\\C=C(/C)C(=O)NC(=CC1=O)C2=O"
  unit: "%"
  glutamate uptake change: 10.3
- compound: "CN1C2CC[C@H]1CC(OC(=O)C(O)c1ccccc1)C2 (some centres undefined)"
  unit: "%"
  glutamate uptake change: -10.2
- compound: "Nc1ncnc2c1ncn2C1OC(CO)[C@H](O)C1O (some centres undefined)"
  unit: "%"
  glutamate uptake change: 3.91
- compound: "CC1CC2C3CCC4=CC(=O)C=CC4(C)[C@@]3(F)C(O)CC2(C)[C@@]1(O)C(=O)CO (some centres undefined)"
  unit: "%"
  glutamate uptake change: -14.9
- compound: "COc1cccc(C(=O)c2ccccc2O)c1O"
  unit: "%"
  glutamate uptake change: -9.84
- compound: "CO/N=C(\\C(=O)NC1C(=O)N2C(C(=O)O)=C(CSc3nc(=O)c(O)nn3C)CS[C@H]12)c1csc(N)n1 (some centres undefined)"
  unit: "%"
  glutamate uptake change: 15.4
- compound: "O=C(Cc1cccs1)NC1C(=O)N2C(C(=O)[O-])=C(C[n+]3ccccc3)CSC12 (centres undefined)"
  unit: "%"
  glutamate uptake change: -13.7
- compound: "CC1(C)O[C@@H]2CC3C4CCC5=CC(=O)CCC5(C)C4(F)C(O)CC3(C)[C@]2(C(=O)CCl)O1 (some centres undefined)"
  unit: "%"
  glutamate uptake change: 12.8

###

Each entry below carries its reported inhibition.
Assay: growth inhibition, single agents and combos, HTB85, cell-based, BGB or cisplatin IC20 combos, synergistic combos for chromothripsis tumors (AID 1671453);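 also: cells exposed for 96 hours before readout; 0% = vehicle DMSO and 100% = high DMSO killing control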
Settings: HTB85 osteosarcoma cells, drug combinations, single agent, at 5 µM, stronger effect = higher value

- compound: "C=C(NC(=O)C(=C)NC(=O)c1csc(C2=NC3c4csc(n4)C4NC(=O)c5csc(n5)C(C(C)(O)C(C)O)NC(=O)C5CSC(=N5)/C(=C/C)NC(=O)C(C(C)O)NC(=O)c5csc(n5)C3(CC2)NC(=O)C(C)NC(=O)C(=C)NC(=O)C(C)NC(=O)C(C(C)CC)NC2C=Cc3c(C(C)O)cc(nc3C2O)C(=O)OC4C)n1)C(N)=O (stereo not drawn)"
  inhibition [%]: 98.8
- compound: "CC(=O)C1(O)Cc2c(O)c3c(c(O)c2C(OC2CC(N)C(O)C(C)O2)C1)C(=O)c1ccccc1C3=O (stereo not drawn)"
  inhibition [%]: 99.9
- compound: "CC(C)c1ccc(-c2cc(=O)c3ccccc3o2)cc1"
  inhibition [%]: 16.9
- compound: "COc1ccc(-c2nc(-c3cc(C(F)(F)F)cc(C(F)(F)F)c3)n(Cc3ccc(C(N)=O)cc3)c2-c2ccc(OC)cc2)cc1"
  inhibition [%]: 13.9
- compound: "O=C(CCCCCCC(=O)NO)NO"
  inhibition [%]: 8.05
- compound: "CCC1(O)C(=O)OCc2c1cc1n(c2=O)Cc2cc3cc(O)ccc3nc2-1 (stereo not drawn)"
  inhibition [%]: 99.6
- compound: "COc1cccc2c1C(=O)c1c(O)c3c(c(O)c1C2=O)CC(O)(C(=O)CO)CC3OC1CC(N)C(OC2CCCCO2)C(C)O1 (stereo not drawn)"
  inhibition [%]: 99.2
- compound: "CC1CNC(=O)NC1=O (stereo not drawn)"
  inhibition [%]: -19.6

###

Test: blockers of polyQ-driven CASP3 activation – cell-based (AID 1583)
Details: polyglutamine-induced caspase-3 activation, cell assay; stronger effect = higher value; concentration not given here
Recorded inhibition, one value per entry.
measurement_type: inhibition (%)

- compound: "OCCS"
  unit: "%"
  assay_value: 26.7
- compound: "CC[C@@]1(O)C[C@H](OC2CC(N(C)C)C(OC3CC(O)C(OC4CCC(=O)C(C)O4)C(C)O3)C(C)O2)c2c(cc3c(c2O)C(=O)c2c(O)cccc2C3=O)[C@H]1C(=O)OC (stereo not given in full)"
  unit: "%"
  assay_value: -23.8
- compound: "CCC[C@@H]1C[C@@H](C(=O)NC(C(C)Cl)C2O[C@H](SC)[C@H](O)[C@@H](O)[C@H]2O)N(C)C1 (stereo not given in full)"
  unit: "%"
  assay_value: 0.38
- compound: "COC(=O)/C(=C1\\OC(=O)C(c2ccccc2)C1=O)c1ccccc1 (stereo not given)"
  unit: "%"
  assay_value: -4.2
- compound: "NCCNC(=O)c1ccc(Cl)cc1"
  unit: "%"
  assay_value: -45.7
- compound: "Nc1ncnc2c1ncn2C1OC(CO)[C@H](O)C1O (stereo not given in full)"
  unit: "%"
  assay_value: -97.3
- compound: "OCc1cc2c(cn1)[nH]c1ccccc12"
  unit: "%"
  assay_value: 15.8
- compound: "COc1ccc(-c2cc(=O)c3c(O)cc(O)cc3o2)cc1"
  unit: "%"
  assay_value: -17.1
- compound: "O=C(Cc1cccs1)NC1C(=O)N2C(C(=O)[O-])=C(C[n+]3ccccc3)CSC12 (stereo not given)"
  unit: "%"
  assay_value: 35.1
- compound: "CC(=O)OCC(=O)[C@@]12OC(C)(C)O[C@@H]1C[C@H]1C3C[C@H](F)C4=CC(=O)C=CC4(C)[C@@]3(F)[C@@H](O)C[C@@]12C (stereo not given in full)"
  unit: "%"
  assay_value: -2.33
- compound: "CCC(=O)O[C@@H](O[P@](=O)(CCCCc1ccccc1)CC(=O)N1C[C@H](C2CCCCC2)C[C@H]1C(=O)O)C(C)C"
  unit: "%"
  assay_value: 5.65
- compound: "COc1ccc2c(c1OC)C(=O)O[C@H]2[C@@H]1c2ccccc2CCN1C"
  unit: "%"
  assay_value: 69.2
- compound: "CC[C@]12CCCN3CCc4c(n(c5ccccc45)[C@](O)(C(=O)OC)C1)[C@@H]32"
  unit: "%"
  assay_value: 18.7
- compound: "CC1CC2C3CCC4=CC(=O)C=CC4(C)[C@@]3(F)C(O)CC2(C)[C@@]1(O)C(=O)CO (stereo not given in full)"
  unit: "%"
  assay_value: 7.1
- compound: "CC1(C)O[C@@H]2C[C@H]3C4C[C@H](F)C5=CC(=O)C=CC5(C)[C@@]4(F)[C@@H](O)C[C@]3(C)[C@]2(C(=O)CO)O1 (stereo not given in full)"
  unit: "%"
  assay_value: -27.2
- compound: "CC(=O)Oc1ccc2c(c1)CCC1C2CCC2(C)C(=O)CCC12 (stereo not given)"
  unit: "%"
  assay_value: 10.5
- compound: "CC(C)CC1NC(=O)CNC1=O (stereo not given)"
  unit: "%"
  assay_value: 8.98
- compound: "COc1ccc(CCC(=O)c2c(O)cc(O[C@@H]3O[C@H](CO)C(O)[C@H](O)C3O[C@@H]3O[C@@H](C)[C@H](O)[C@@H](O)[C@H]3O)cc2O)cc1O (stereo not given in full)"
  unit: "%"
  assay_value: 18.6
- compound: "Cc1cc(Nc2ccccc2C(=O)O)ccc1Cl"
  unit: "%"
  assay_value: -21.2
- compound: "C[C@]12CCC3c4ccc(OC(=O)CCC(=O)O)cc4CCC3C1CCC2=O (stereo not given in full)"
  unit: "%"
  assay_value: 21.8

###

Experiment: viability loss with induced miR-34 in A549 – imaging, A549 dox-inducible miR-34, nuclei and caspase counts, primary screen (AID 1347080)
Conditions: A549 miR-34 inducible, Hoechst nuclei count, 48 h; measured here: total cells without miR-34 induction
In this section we review reported cell count values for a set of compounds.
measurement_type: cell count

- compound: "CC[N+](CC)(CC)CCC(O)(c1ccccc1)C1CCCCC1 (stereo not given)"
  assay_value: 9350
- compound: "O=C(c1cccnc1)N1CCOCC1"
  assay_value: 8630
- compound: "Cc1cc(-c2csc(Nc3ccc(C(=O)O)c(O)c3)n2)ccc1F"
  assay_value: 9650
- compound: "CCCCCCCCCCCCCCCC(=O)NCC(=O)O"
  assay_value: 9940
- compound: "COc1ccc(C=CC(=O)O)cc1O"
  assay_value: 10100
- compound: "CC(C)Oc1ccc(-c2cnc3c(-c4ccnc5ccccc45)cnn3c2)cc1"
  assay_value: 6780
- compound: "Cc1nc(C)c(-c2ccnc(N)n2)s1"
  assay_value: 9270
- compound: "Nc1ncnc2c1ncn2[C@@H]1O[C@H](CO)[C@H](O)C1O (stereo not given in full)"
  assay_value: 11100
- compound: "CC(=O)N1CCCC(Cn2cnc3scc(-c4cc(C)ccc4C)c3c2=O)C1 (stereo not given)"
  assay_value: 8990
- compound: "COc1cccc2c(=O)n(Cc3ccc4nonc4c3)cnc12"
  assay_value: 8980
- compound: "CCCCCCCCCC(=O)OCC(CO)OC(=O)CCCCCCCCC (stereo not given)"
  assay_value: 4860
- compound: "CCc1cnn2c(NCc3ccc[n+]([O-])c3)cc(N3CCCCC3CCO)nc12 (stereo not given)"
  assay_value: 1550
- compound: "CCC1C(=O)N(C)c2cnc(Nc3ccc(C(=O)NC4CCN(C)CC4)cc3OC)nc2N1C1CCCC1 (stereo not given)"
  assay_value: 1150
- compound: "CCOC(=O)Oc1c(OC)cc(C(=O)O[C@@H]2C[C@@H]3CN4CCc5c([nH]c6cc(OC)ccc56)[C@H]4C[C@@H]3[C@H](C(=O)OC)[C@H]2OC)cc1OC"
  assay_value: 8100
- compound: "CC[C@@]1([C@@H]2O[C@@H]([C@H]3O[C@@](O)(CO)[C@H](C)C[C@@H]3C)C[C@@H]2C)CC[C@H]([C@]2(C)CC[C@]3(C[C@H](O)[C@@H](C)[C@@H]([C@@H](C)[C@@H](OC)C(C)C(=O)O)O3)O2)O1 (stereo not given in full)"
  assay_value: 1730
- compound: "COc1ccc(CNCc2cccc3ccccc23)cc1"
  assay_value: 8960
- compound: "O=C(O)C1CCNCC1"
  assay_value: 9760
- compound: "Nc1nc(N)c2nc(-c3cccc(O)c3)cnc2n1"
  assay_value: 6410
- compound: "CC1(C)CC(=O)c2c(N)ncnc2C1"
  assay_value: 10200
- compound: "NC[C@@H]1O[C@H](O[C@H]2[C@@H](O)[C@H](O[C@@H]3[C@@H](O)[C@H](N)C[C@H](N)[C@H]3OC3O[C@H](CO)[C@@H](O)[C@H](O)[C@H]3N)O[C@@H]2CO)[C@H](N)[C@@H](O)[C@@H]1O (stereo not given in full)"
  assay_value: 10500
